biological target: UniProtKB Q14694; experiment: ubiquitin-specific protease 10 DUB inhibitors, concentration-effect, biochemical, verification of primary screen actives (AID 1645863); settings: USP10 deubiquitinase enzymatic assay;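 note: potency values describe inhibition of USP10 cleavage of a fluorogenic ubiquitin substrate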
Sequence (Q14694 whole entry, looked up): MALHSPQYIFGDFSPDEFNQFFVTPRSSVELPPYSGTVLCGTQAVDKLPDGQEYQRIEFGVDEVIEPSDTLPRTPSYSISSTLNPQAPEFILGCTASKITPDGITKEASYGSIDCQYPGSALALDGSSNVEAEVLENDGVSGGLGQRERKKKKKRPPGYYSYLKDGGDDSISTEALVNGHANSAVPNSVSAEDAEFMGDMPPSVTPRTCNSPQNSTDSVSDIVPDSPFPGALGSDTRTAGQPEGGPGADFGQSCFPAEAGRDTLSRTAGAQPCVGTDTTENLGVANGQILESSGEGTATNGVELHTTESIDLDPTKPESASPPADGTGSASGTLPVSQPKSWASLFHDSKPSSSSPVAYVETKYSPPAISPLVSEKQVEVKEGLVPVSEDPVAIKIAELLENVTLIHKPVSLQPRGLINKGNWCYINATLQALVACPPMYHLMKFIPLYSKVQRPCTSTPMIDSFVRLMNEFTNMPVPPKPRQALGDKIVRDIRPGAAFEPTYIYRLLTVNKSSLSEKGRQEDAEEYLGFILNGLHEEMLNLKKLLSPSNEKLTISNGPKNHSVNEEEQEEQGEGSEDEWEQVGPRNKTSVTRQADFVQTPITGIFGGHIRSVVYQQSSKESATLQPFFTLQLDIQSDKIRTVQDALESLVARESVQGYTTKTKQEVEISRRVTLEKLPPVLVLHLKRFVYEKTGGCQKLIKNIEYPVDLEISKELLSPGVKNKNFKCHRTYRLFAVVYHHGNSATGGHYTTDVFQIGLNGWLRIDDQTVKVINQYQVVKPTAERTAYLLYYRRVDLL
Active and inactive are the calls of the source. The rule behind the calls is not given here.
Assign a class; possible classes are 1.0 for active, 0.0 for inactive

Example cases with answers are listed next.
compound	assigned_category
O=C(Nc1cccc(Br)c1)c1cc(-c2cccnc2)n[nH]1	1.0
CSc1ccc(CNC(=O)Cn2nc(C)c3c(C)n(-c4ccccc4)nc3c2=O)cc1	1.0
COc1ccc(NC(=O)c2nnc(C(=O)NCCN3CCCCCC3)s2)cc1	0.0
O=C(Cn1c(=O)c2ccccc2n(CC(=O)Nc2cccc(F)c2)c1=O)NCCc1ccccc1	1.0
O=C(Nc1cccc(Cl)c1)c1ncn2c1CNS(=O)(=O)c1ccccc1-2	1.0

[ask] // outcome(item) with item = `Cc1ccc(NC(=O)CSc2nnc(-c3n[nH]c4c3CCC4)n2N)cc1C`
[reply] 1.0

[ask] // outcome(item) with item = `Cc1cc(NC(=O)c2cc(-c3cccnc3)n[nH]2)ccc1Br`
[reply] 1.0

[ask] // outcome(item) with item = CCCCCCCCCC(CCCCCCCCCC(=O)O)O[C@H]1O[C@@H](COC(C)=O)[C@H](O)[C@@H](OC(=O)CC(=O)O)[C@H]1O (some centres undefined)
[reply] 1.0

[ask] // outcome(item) with item = `N=C1/C(=C/c2cn(Cc3ccc(F)cc3)c3ccccc23)C(=O)N=C2SC(Cc3ccccc3)=NN12`
[reply] 1.0

[ask] // outcome(item) with item = `CC(C)NC(=O)Cn1ccn2nc(-c3ccc(Cl)cc3)cc2c1=O`
[reply] 0.0

[ask] // outcome(item) with item = `CCOC(=O)N1CCC(NC(=O)c2cc(C(=O)Nc3ccc(S(=O)(=O)N4CCCCC4)cc3)ccc2CO)CC1`
[reply] 0.0

[ask] // outcome(item) with item = `CCOc1ccc(NC(=O)Cn2c(=O)n(CCC(=O)NCc3ccco3)c(=O)c3ccccc32)cc1`
[reply] 1.0

[ask] // outcome(item) with item = `O=C(c1[nH]nc2c1COc1ccccc1-2)N1CCN(c2ccccn2)CC1`
[reply] 0.0

[ask] // outcome(item) with item = `O=C(Nc1ccccc1Cc1ccccc1)c1nc2n(n1)-c1ccccc1S(=O)(=O)N2`
[reply] 1.0
